Recorded inhibition in vivo at 50 mg/kg by entry
System: Rattus norvegicus
experimental-protocol: Compound was tested in vivo for its ability to inhibit DTH(delayed type hypersensitivity ) in rat at a concentration of 50 mg/kg
Assay type: functional
metric-name: inhibition in vivo at 50 mg/kg (%)

>>> measured("N#C/C(C(=O)Nc1ccccc1Cl)=C(/O)C1CC1")
-12
>>> measured("N#CCc1ccc(NC(=O)/C(C#N)=C(\\O)C2CC2)cc1")
3
>>> measured("C[S+]([O-])c1ccc(NC(=O)/C(C#N)=C(\\O)C2CC2)cc1 (stereo unspecified)")
71
>>> measured("Cc1ccc(NC(=O)/C(C#N)=C(\\O)C2CC2)cc1")
28
>>> measured("CSc1ccc(NC(=O)/C(C#N)=C(\\O)C2CC2)cc1")
60
>>> measured("CS(=O)(=O)c1ccc(NC(=O)/C(C#N)=C(\\O)C2CC2)cc1")
50

###

target: Dihydroorotate dehydrogenase (quinone), mitochondrial (Rattus norvegicus, UniProt Q63707)
Sequence (Q63707 whole entry): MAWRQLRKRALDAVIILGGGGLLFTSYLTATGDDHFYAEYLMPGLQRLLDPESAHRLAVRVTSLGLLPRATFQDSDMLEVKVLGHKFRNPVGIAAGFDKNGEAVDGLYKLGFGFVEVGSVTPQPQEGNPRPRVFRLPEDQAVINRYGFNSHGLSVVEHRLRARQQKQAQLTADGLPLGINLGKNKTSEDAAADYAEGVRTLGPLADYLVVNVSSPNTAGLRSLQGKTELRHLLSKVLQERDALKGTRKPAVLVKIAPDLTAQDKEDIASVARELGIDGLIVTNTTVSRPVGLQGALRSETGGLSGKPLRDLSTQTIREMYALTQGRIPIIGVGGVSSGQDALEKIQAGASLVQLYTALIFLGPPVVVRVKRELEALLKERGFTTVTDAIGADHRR
Recorded IC50, one value per entry.
metric-name: IC50 (µM)

>>> measured("N#C/C(C(=O)Nc1ccc(O)cc1)=C(/O)C1CC1")
7.94
>>> measured("N#C/C(C(=O)Nc1ccc(-c2cccs2)cc1)=C(/O)C1CC1")
0.631
>>> measured("N#C/C(C(=O)Nc1ccc(C(F)(F)F)cc1)=C(/O)C1CCCO1 (stereo unspecified)")
44.7
>>> measured("Cc1oncc1C(=O)Nc1ccc(C(F)(F)F)cc1 [LEFLUNOMIDE]")
0.009

###

Tested on: Rattus norvegicus
experimental-protocol: In vivo ability to inhibit delayed type hypersensitivity in rat at a concentration of 50 mg/kg
Type: functional
inhibition in vivo at 50 mg/kg of 60% or higher: fulfilled. Under 60%: not fulfilled.

>>> label_value("N#C/C(C(=O)Nc1ccc(N)cc1)=C(/O)C1CC1")
"not fulfilled"
>>> label_value("N#C/C(C(=O)Nc1ccc(Cl)nc1)=C(/O)C1CC1")
"fulfilled"
>>> label_value("CN1CCCC1/C(O)=C(\\C#N)C(=O)Nc1ccc(C(F)(F)F)cc1 (stereo unspecified)")
"not fulfilled"
>>> label_value("N#C/C(C(=O)Nc1ccc(C=Cc2ccc(Cl)cc2)cc1)=C(/O)C1CC1")
"not fulfilled"
>>> label_value("N#C/C(C(=O)Nc1ccc(Cl)cn1)=C(/O)C1CC1")
"fulfilled"
>>> label_value("COc1ccc(NC(=O)/C(C#N)=C(\\O)C2CC2)cc1")
"not fulfilled"
>>> label_value("N#C/C(C(=O)Nc1ccc(/C=C/c2ccc(Cl)cc2)cc1)=C(/O)C1CC1")
"not fulfilled"
>>> label_value("N#C/C(C(=O)Nc1ccc(Oc2ccccc2)cc1)=C(/O)C1CC1")
"not fulfilled"
>>> label_value("N#C/C(C(=O)Nc1ccc(-c2ccco2)cc1)=C(/O)C1CC1")
"not fulfilled"
>>> label_value("N#C/C(C(=O)Nc1ccc(O)cc1)=C(/O)C1CC1")
"not fulfilled"

###

Catalogue of inhibition in vivo at 100 mg/kg values
System: Mus musculus
experimental-protocol: In vivo ability to inhibit delayed type hypersensitivity in mouse at a concentration of 100 mg/kg
Format: functional
metric-name: inhibition in vivo at 100 mg/kg (%)

>>> measured("N#C/C(C(=O)Nc1ccc(C(F)(F)F)cc1)=C(/O)C1CCCN1 (stereo not given)")
-4
>>> measured("N#C/C(C(=O)Nc1ccncc1)=C(/O)C1CC1")
22
>>> measured("COc1ccc(NC(=O)/C(C#N)=C(\\O)C2CC2)cc1")
9
>>> measured("N#C/C(C(=O)Nc1ccc(CCc2ccccc2)cc1)=C(/O)C1CC1")
5
>>> measured("N#C/C(C(=O)Nc1ccc(C(F)(F)F)cc1)=C(/O)C1CCCO1 (stereo not given)")
29
>>> measured("N#C/C(C(=O)Nc1ccc(Cl)cn1)=C(/O)C1CC1")
48
>>> measured("N#C/C(C(=O)Nc1ccc(C=Cc2ccc(Cl)cc2)cc1)=C(/O)C1CC1")
19
>>> measured("Cc1ccc(NC(=O)/C(C#N)=C(\\O)C2CC2)cc1Cl")
43
>>> measured("C=C/C(O)=C(\\C#N)C(=O)Nc1ccc(C(F)(F)F)cc1")
7
>>> measured("N#C/C(C(=O)Nc1ccc(C(N)=O)cc1)=C(/O)C1CC1")
-18

###

System: Rattus norvegicus
experimental-protocol: In vivo for its ability to inhibit delayed type hypersensitivity in rat following 10 mg/kg administration.
metric-name: inhibition in vivo at 10 mg/kg (%)

>>> measured("N#C/C(C(=O)Nc1ccc(-c2ccc(F)cc2)cc1)=C(/O)C1CC1")
79
>>> measured("N#C/C(C(=O)Nc1ccc(C#Cc2ccc(Cl)cc2)cc1)=C(/O)C1CC1")
61
>>> measured("N#C/C(C(=O)Nc1ccc(-c2cccs2)cc1)=C(/O)C1CC1")
34
>>> measured("N#C/C(C(=O)Nc1ccc(Oc2ccc(Cl)cc2)cc1)=C(/O)C1CC1")
31
>>> measured("Cc1cc(NC(=O)/C(C#N)=C(\\O)C2CC2)ccc1C(F)(F)F")
59
>>> measured("CC(=O)c1ccc(NC(=O)/C(C#N)=C(\\O)C2CC2)cc1")
59
>>> measured("Cc1cc(NC(=O)/C(C#N)=C(\\O)C2CC2)ccc1Cl")
42
>>> measured("N#C/C(C(=O)Nc1ccc(Oc2ccc(C(F)(F)F)cc2)cc1)=C(/O)C1CC1")
39
>>> measured("N#C/C(C(=O)Nc1ccc(-c2nc(C(F)(F)F)cs2)cc1)=C(/O)C1CC1")
30
>>> measured("Cc1oncc1C(=O)Nc1ccc(C(F)(F)F)cc1 [LEFLUNOMIDE]")
78
>>> measured("N#C/C(C(=O)Nc1ccc(Br)cn1)=C(/O)C1CC1")
66
>>> measured("Cc1cc(NC(=O)/C(C#N)=C(\\O)C2CC2)ccc1C#N")
50

###

target: Dihydroorotate dehydrogenase (quinone), mitochondrial (Mus musculus, UniProt O35435)
Sequence (O35435 whole entry): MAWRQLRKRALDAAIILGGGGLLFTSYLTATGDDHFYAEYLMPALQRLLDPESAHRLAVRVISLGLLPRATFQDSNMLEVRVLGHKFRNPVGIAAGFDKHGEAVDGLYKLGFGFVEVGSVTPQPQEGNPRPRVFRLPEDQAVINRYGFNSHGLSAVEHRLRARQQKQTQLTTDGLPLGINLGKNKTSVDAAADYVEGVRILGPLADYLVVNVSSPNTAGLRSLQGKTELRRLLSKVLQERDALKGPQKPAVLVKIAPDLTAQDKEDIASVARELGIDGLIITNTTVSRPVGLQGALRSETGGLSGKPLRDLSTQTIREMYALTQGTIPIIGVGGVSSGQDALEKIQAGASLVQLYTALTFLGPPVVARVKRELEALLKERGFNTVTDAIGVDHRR
Field 'label' (enum: 1.0 / 0.0). Set to 1.0 when IC50 is strictly under 500 nM; else 0.0.

>>> label_value("N#C/C(C(=O)Nc1ccc(Br)cc1)=C(/O)C1CC1")
1.0
>>> label_value("N#C/C(C(=O)Nc1ccc(C(F)(F)F)cn1)=C(/O)C1CC1")
1.0
>>> label_value("N#C/C(C(=O)Nc1cccc(C(F)(F)F)c1)=C(/O)C1CC1")
0.0
>>> label_value("N#C/C(C(=O)Nc1ccccc1)=C(/O)C1CC1")
0.0
>>> label_value("N#C/C(C(=O)Nc1ccc(C(F)(F)F)cc1)=C(/O)C1CCCO1 (configuration not stated)")
0.0
>>> label_value("N#C/C(C(=O)Nc1ccc(C#N)cc1)=C(/O)C1CC1")
1.0
>>> label_value("N#C/C(C(=O)Nc1ccc(Cl)nc1)=C(/O)C1CC1")
0.0

###

Test system: Rattus norvegicus
experimental-protocol: Compound was tested in vivo for its ability to inhibit DTH(delayed type hypersensitivity ) in rat at a concentration of 50 mg/kg
Assay type: functional
metric-name: inhibition in vivo at 50 mg/kg

>>> measured("C=C(C)/C(O)=C(\\C#N)C(=O)Nc1ccc(C(F)(F)F)cc1")
"78%"
>>> measured("C#C/C(O)=C(\\C#N)C(=O)Nc1ccc(C(F)(F)F)cc1")
"4%"
>>> measured("N#C/C(C(=O)Nc1cccc(Cl)c1)=C(/O)C1CC1")
"25%"
>>> measured("N#C/C(C(=O)Nc1ccccc1C(F)(F)F)=C(/O)C1CC1")
"-4%"
>>> measured("N#C/C(C(=O)Nc1cccc(C(F)(F)F)c1)=C(/O)C1CC1")
"49%"
>>> measured("N#C/C(C(=O)Nc1ccccc1)=C(/O)C1CC1")
"43%"
>>> measured("C/C=C/C(O)=C(\\C#N)C(=O)Nc1ccc(C(F)(F)F)cc1")
"16%"
>>> measured("C=C/C(O)=C(\\C#N)C(=O)Nc1ccc(C(F)(F)F)cc1")
"74%"
>>> measured("C=CC/C(O)=C(\\C#N)C(=O)Nc1ccc(C(F)(F)F)cc1")
"79%"

###

target: Dihydroorotate dehydrogenase (quinone), mitochondrial (Mus musculus, UniProt O35435)
Threshold check on IC50: strictly below 200 nM is yes; on or above 200 nM is no.

>>> label_value("COc1ccc(NC(=O)/C(C#N)=C(\\O)C2CC2)cc1")
"no"
>>> label_value("N#C/C(C(=O)Nc1ccccc1C(F)(F)F)=C(/O)C1CC1")
"no"
>>> label_value("N#C/C(C(=O)Nc1ccc(-c2cccs2)cc1)=C(/O)C1CC1")
"no"
>>> label_value("N#C/C(C(=O)Nc1ccc(C(=O)c2ccc(Cl)cc2)cc1)=C(/O)C1CC1")
"no"
>>> label_value("Cc1cc(NC(=O)/C(C#N)=C(\\O)C2CC2)ccc1C(F)(F)C(F)(F)F")
"no"
>>> label_value("N#C/C(C(=O)Nc1ccc(C#Cc2ccc(Cl)cc2)cc1)=C(/O)C1CC1")
"no"
>>> label_value("C=CC/C(O)=C(\\C#N)C(=O)Nc1ccc(C(F)(F)F)cc1")
"yes"
>>> label_value("N#C/C(C(=O)Nc1ccc(SC(F)(F)F)cc1)=C(/O)C1CC1")
"yes"
>>> label_value("Cc1cc(NC(=O)/C(C#N)=C(\\O)C2CC2)ccc1Br")
"yes"
>>> label_value("N#C/C(C(=O)Nc1ccc(C(F)(F)F)cc1)=C(/O)C1CCC1")
"no"
